These entries and their values trace back to patent US11584747B2.

Molecular target: human DGKα (Homo sapiens (Human))
Sequence (P23743 whole entry, looked up): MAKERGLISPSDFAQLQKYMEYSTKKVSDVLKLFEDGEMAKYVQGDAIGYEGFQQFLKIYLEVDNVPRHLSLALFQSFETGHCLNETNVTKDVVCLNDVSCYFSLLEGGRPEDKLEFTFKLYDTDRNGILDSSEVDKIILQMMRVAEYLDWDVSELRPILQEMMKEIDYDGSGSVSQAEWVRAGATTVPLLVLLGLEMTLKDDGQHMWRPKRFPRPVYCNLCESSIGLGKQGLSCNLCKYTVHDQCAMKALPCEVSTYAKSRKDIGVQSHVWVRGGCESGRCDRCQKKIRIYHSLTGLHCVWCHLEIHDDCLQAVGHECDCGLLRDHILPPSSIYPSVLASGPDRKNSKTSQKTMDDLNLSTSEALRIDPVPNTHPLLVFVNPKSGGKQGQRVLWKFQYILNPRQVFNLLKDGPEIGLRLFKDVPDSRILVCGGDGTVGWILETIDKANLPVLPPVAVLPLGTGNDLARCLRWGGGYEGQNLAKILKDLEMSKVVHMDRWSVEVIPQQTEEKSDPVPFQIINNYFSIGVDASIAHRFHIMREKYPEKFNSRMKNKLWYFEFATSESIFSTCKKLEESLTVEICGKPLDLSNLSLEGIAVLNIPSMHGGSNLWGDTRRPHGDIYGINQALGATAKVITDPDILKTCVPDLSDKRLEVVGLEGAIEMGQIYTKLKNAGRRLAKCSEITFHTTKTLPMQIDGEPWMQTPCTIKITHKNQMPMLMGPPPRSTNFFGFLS
Assay: DGKα ADPGLO assay (detergent/lipid micelle substrate)
Type: biochemical
Details: truncated DGK alpha; read-out: DGK alpha ADPGLO (Truncated) IC50
Method: DGK Alpha ADPGLO (Truncated) IC50 (uM) The detergent/lipid micelle was prepared by combining 15 g phosphatidylserine (Avanti 840035P) and 1 g diacylglycerol (8008110) and dissolving into 150 mL chloroform in a 2 L round bottom flask. Chloroform was removed under high vacuum by rotary evaporation. […] The lipid/detergent solution was split into 5 mL aliquots and stored at −80° C.
measured.endpoint: IC50 (µM)

Please review the entries below; each comes with its answer.
| molecule | measured.endpoint | measured.value |
| --- | --- | --- |
| CC[C@H]1CN(C(C)c2cccc(OC(F)(F)F)n2)[C@H](CC)CN1c1nc(=O)n(C)c2ccc(C#N)nc12 (some centres unmarked) [Example 246] | IC50 | 4.67 |
| CC[C@@H]1CN(c2nc(=O)n(C)c3ccc(C#N)nc23)[C@@H](C)CN1C(c1ccc(F)cc1)c1csc(C(F)(F)F)n1 (some centres unmarked) [Example 296] | IC50 | 0.46 |

I. CC[C@@H]1CN(c2nc(=O)n(C)c3ccc(C#N)nc23)[C@@H](CC)CN1Cc1ccc(C(F)(F)F)cc1
II. CC[C@@H]1CN(c2nc(=O)n(C)c3ccc(C#N)nc23)[C@@H](C)CN1C(c1ccc(F)cc1)c1nc(C2CC2)no1 (some centres unmarked) [Example 113]
Could you please tell me which of these two has the higher IC50: I or II ? Response format: the label of the selected entry.
I
(I: 0.061 µM, II: 0.01 µM)

A. CC[C@H]1CN(C(C)c2ccc(CN3CCN(C(C)=O)CC3)cc2)[C@H](CC)CN1c1nc(=O)n(C)c2ccc(C#N)nc12 (some centres unmarked) [Example 284]
B. CC[C@@H]1CN(c2nc(=O)n(C)c3ccc(C#N)nc23)[C@@H](C)CN1C(C)c1ccc(C(F)(F)F)cc1 (single isomer, unassigned) [Example 8]
C. CCC(c1ccc(OCC2CC2)cc1)N1C[C@H](CC)N(c2nc(=O)n(C)c3ccc(C#N)nc23)C[C@H]1CC (some centres unmarked) [Example 216]
Put the entries in order of IC50, starting with the largest number. Write the labels out in the order the request specifies.
A, B, C
(A: 3.17 µM, B: 0.14 µM, C: 0.087 µM)

a. CC[C@H]1CN(C(C)c2ccc(CN3CCN(C(C)=O)CC3)cc2)[C@H](CC)CN1c1nc(=O)n(C)c2ccc(C#N)nc12 (some centres unmarked) [Example 283]
b. CCC(c1ccc(CN2CCOCC2)cc1)N1C[C@H](CC)N(c2nc(=O)n(C)c3ccc(C#N)nc23)C[C@H]1CC (some centres unmarked) [Example 267]
Could you kindly indicate whether a or b has the higher IC50 value? Lab log: write the label of the selected item as the result.
a
